Molecular target: T1, EsCas13d, nuclease-dead (Eubacterium siraeum, UniProt B0MS50, R295A;H300A;R849A;H854A)
T1 sequence: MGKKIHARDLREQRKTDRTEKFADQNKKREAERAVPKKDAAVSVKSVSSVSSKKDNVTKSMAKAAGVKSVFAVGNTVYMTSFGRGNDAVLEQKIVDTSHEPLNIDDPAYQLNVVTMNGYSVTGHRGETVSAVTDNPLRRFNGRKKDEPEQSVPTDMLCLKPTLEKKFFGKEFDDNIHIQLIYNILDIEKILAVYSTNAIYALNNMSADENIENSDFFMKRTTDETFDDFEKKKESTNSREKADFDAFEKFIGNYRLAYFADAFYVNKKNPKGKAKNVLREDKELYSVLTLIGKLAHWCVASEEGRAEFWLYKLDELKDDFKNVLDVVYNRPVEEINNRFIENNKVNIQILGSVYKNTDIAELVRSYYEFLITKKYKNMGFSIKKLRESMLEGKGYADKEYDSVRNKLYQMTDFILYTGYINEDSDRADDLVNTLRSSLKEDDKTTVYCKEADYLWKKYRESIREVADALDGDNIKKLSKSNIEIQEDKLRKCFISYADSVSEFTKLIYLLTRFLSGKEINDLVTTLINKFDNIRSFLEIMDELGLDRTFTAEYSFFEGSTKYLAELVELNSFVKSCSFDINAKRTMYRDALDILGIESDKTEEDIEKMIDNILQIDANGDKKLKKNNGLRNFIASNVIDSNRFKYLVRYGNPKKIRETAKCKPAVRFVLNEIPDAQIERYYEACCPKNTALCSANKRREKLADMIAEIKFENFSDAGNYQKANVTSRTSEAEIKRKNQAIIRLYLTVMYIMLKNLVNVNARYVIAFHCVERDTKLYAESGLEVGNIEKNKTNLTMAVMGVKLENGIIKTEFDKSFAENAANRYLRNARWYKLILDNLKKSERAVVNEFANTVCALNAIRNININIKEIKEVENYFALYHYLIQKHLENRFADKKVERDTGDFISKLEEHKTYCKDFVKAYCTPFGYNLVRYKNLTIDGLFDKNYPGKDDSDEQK
Assay: crRNA (strand 1, pre-loaded); Mg2+; 40 mM Tris-HCl pH 7.5, 150 mM NaCl, 6 mM MgCl2, 1 mM DTT, 0.1% Tween-20, 0.2 mg/ml BSA; 25 C; 10 min per concentration, then washed
Conditions: tags: His6-TwinStrep-SUMO cleaved; N-terminal SNAP kept (SNAP-Surface 488); label: 3' end held by stalled T7 RNA polymerase
property name: pKd
One number for each entry, as −log10 of the molar value.

# binder, pKd
data = [
    ("target 1 MT 5'PFS GAG 3'PFS UAG (mixed) RNA 1: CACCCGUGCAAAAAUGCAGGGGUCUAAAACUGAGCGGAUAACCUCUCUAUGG RNA 2: GGGAAUGGAUCCACAUCUACGAAUUCGAGCCAUAGAGAGGUUAUCCGCUCAUAGAGAUCGGAAGAGCACACGU", 7.33),
    ("target 1 insC 3' of 14,insC 3' of 3 (mixed) RNA 1: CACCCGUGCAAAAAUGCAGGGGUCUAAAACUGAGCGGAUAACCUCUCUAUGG RNA 2: GGGAAUGGAUCCACAUCUACGAAUUCGUACCAUAGAGACGGUUAUCCGCUCCACCGAGAUCGGAAGAGCACACGU", 7.35),
    ("target 2 MT 5'PFS CUA 3'PFS CUU (mixed) RNA 1: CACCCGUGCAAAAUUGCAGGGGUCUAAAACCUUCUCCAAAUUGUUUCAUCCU RNA 2: GGGAAUGGAUCCACAUCUACGAAUUCCUAAGGAUGAAACAAUUUGGAGAAGCUUAGAUCGGAAGAGCACACGU", 8.40),
    ("target 2 MT 5'PFS AAU 3'PFS CUC (mixed) RNA 1: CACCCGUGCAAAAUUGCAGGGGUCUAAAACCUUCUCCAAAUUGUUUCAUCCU RNA 2: GGGAAUGGAUCCACAUCUACGAAUUCAAUAGGAUGAAACAAUUUGGAGAAGCUCAGAUCGGAAGAGCACACGU", 8.14),
    ("target 1 insC 3' of 22,insG 3' of 2 (mixed) RNA 1: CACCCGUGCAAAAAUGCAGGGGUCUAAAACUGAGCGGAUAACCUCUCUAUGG RNA 2: GGGAAUGGAUCCACAUCUACGAAUUCGUACCCAUAGAGAGGUUAUCCGCUCGACCGAGAUCGGAAGAGCACACGU", 7.68),
]

I have 3 binders here; please give me pKd for each one.
1. target 2 MT 5'PFS GUU 3'PFS UUU (mixed) RNA 1: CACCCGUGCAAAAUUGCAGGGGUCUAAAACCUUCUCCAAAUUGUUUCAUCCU RNA 2: GGGAAUGGAUCCACAUCUACGAAUUCGUUAGGAUGAAACAAUUUGGAGAAGUUUAGAUCGGAAGAGCACACGU
2. target 1 A9G,G12C (mixed) RNA 1: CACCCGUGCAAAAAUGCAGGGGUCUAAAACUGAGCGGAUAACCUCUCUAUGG RNA 2: GGGAAUGGAUCCACAUCUACGAAUUCGUACCAUAGAGAGCUUGUCCGCUCACCGAGAUCGGAAGAGCACACGU
3. target 1 MT 5'PFS UGU 3'PFS ACA (mixed) RNA 1: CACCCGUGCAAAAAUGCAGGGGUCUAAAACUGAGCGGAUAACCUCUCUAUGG RNA 2: GGGAAUGGAUCCACAUCUACGAAUUCUGUCCAUAGAGAGGUUAUCCGCUCAACAAGAUCGGAAGAGCACACGU

OUTPUT:
1: 7.29; 2: 8.01; 3: 7.15

Provenance of the data: paper PMC10786891
